system: Microsporum audouinni; experiment: Agar dilution method, growth on Sabouraud dextrose agar slants; format: cell-based, Microsporum audouinii; design: key: +++: Maximum Fungal Growth; ++: Moderate Fungal Growth; +: Minimum Fungal Growth; +/−: Very little Fungal Growth; −: No Fungal Growth; conditions: 125 μg/ml; 12th day after inoculation
Test Readout: Fungal growth

Some compounds with recorded Fungal growth:
- C=C(C)C1CCC2(COC(=O)CCC(=O)O)CC[C@@]3(C)C(CCC4[C@@]5(C)CCC(OC(=O)CCC(=O)O)C(C)(C)C5CC[C@]43C)C12 (some centres unmarked) [Betulin-3,28-disuccinate]: +
- C=C(C)C1CCC2(CO)CCC3(C)C(CCC4C5(C)CCC(OC(=O)C=CC(=O)O)C(C)(C)C5CCC43C)C12 (centres unmarked) [Betulin-3-maleate]: +/−
- C=C(C)C1CCC2(COC(=O)CCC(=O)O)CC[C@@]3(C)C(CCC4[C@@]5(C)CCC(O)C(C)(C)C5CC[C@]43C)C12 (some centres unmarked) [Betulin-28-succinate]: +
- CC1(C)CCC23CC[C@@]4(C)C(CCC5[C@@]6(C)CCC(OC(=O)CCC(=O)O)C(C)(C)C6CC[C@]54C)C2C1OC3 (some centres unmarked) [Allobetulin-3-succinate]: ++
- COC1=CC(=O)C[C@@H](C)[C@]12Oc1c(Cl)c(OC)cc(OC)c1C2=O [Griseofulvin, reference compound]: −

Incoming: Write down Fungal growth measured for item C=C(C)[C@@H]1CC[C@]2(COC(=O)COCC(=O)O)CC[C@]3(C)[C@H](CC[C@@H]4[C@@]5(C)CC[C@H](OC(=O)COCC(=O)O)C(C)(C)[C@@H]5CC[C@]43C)[C@@H]12 [Betulin-3,28-didiglycolate]
Outgoing: ++

Incoming: Let me know recorded Fungal growth for C=C(C)[C@@H]1CC[C@]2(COC(=O)c3ccccc3C(=O)O)CC[C@]3(C)[C@H](CC[C@@H]4[C@@]5(C)CC[C@H](OC(=O)c6ccccc6C(=O)O)C(C)(C)[C@@H]5CC[C@]43C)[C@@H]12 [Betulin-3,28-diphthalate] , thanks.
Outgoing: ++

Incoming: Note down Fungal growth recorded for C[C@@H]1[C@H](O)[C@@H](C)/C=C/C=C/CC/C=C/C=C/C=C/C=C/C(O[C@H]2O[C@H](C)[C@@H](O)[C@H](N)[C@@H]2O)CC2O[C@](O)(CC(O)C(O)CCC(O)CC(O)CC(O)CC(=O)O[C@H]1C)CC(O)C2C(=O)O (some centres unmarked) [Nystatin, reference compound]
Outgoing: −

###

system: Trichophyton tonsuran; experiment: Agar dilution method, growth on Sabouraud dextrose agar slants; type: cell-based, Trichophyton tonsurans; parameters: key: +++: Maximum Fungal Growth; ++: Moderate Fungal Growth; +: Minimum Fungal Growth; +/−: Very little Fungal Growth; −: No Fungal Growth; conditions: 250 μg/ml; 12th day after inoculation
Test Readout: Fungal growth

Example results:
• C=C(C)[C@@H]1CC[C@]2(COC(=O)COCC(=O)O)CC[C@]3(C)[C@H](CC[C@@H]4[C@@]5(C)CC[C@H](OC(=O)COCC(=O)O)C(C)(C)[C@@H]5CC[C@]43C)[C@@H]12 [Betulin-3,28-didiglycolate] = +
• C=C(C)C1CCC2(COC(=O)CCC(=O)O)CC[C@@]3(C)C(CCC4[C@@]5(C)CCC(O)C(C)(C)C5CC[C@]43C)C12 (some centres unmarked) [Betulin-28-succinate] = +
• C=C(C)C1CCC2(CO)CCC3(C)C(CCC4C5(C)CCC(OC(=O)C=CC(=O)O)C(C)(C)C5CCC43C)C12 (centres unmarked) [Betulin-3-maleate] = ++
• C=C(C)[C@@H]1CC[C@]2(COC(=O)c3ccccc3C(=O)O)CC[C@]3(C)[C@H](CC[C@@H]4[C@@]5(C)CC[C@H](OC(=O)c6ccccc6C(=O)O)C(C)(C)[C@@H]5CC[C@]43C)[C@@H]12 [Betulin-3,28-diphthalate] = ++
• COC1=CC(=O)C[C@@H](C)[C@]12Oc1c(Cl)c(OC)cc(OC)c1C2=O [Griseofulvin, reference compound] = +/−

Incoming: Input C[C@@H]1[C@H](O)[C@@H](C)/C=C/C=C/CC/C=C/C=C/C=C/C=C/C(O[C@H]2O[C@H](C)[C@@H](O)[C@H](N)[C@@H]2O)CC2O[C@](O)(CC(O)C(O)CCC(O)CC(O)CC(O)CC(=O)O[C@H]1C)CC(O)C2C(=O)O (some centres unmarked) [Nystatin, reference compound] , output reported Fungal growth.
Outgoing: +/−

Incoming: Please give measured Fungal growth of the following entry: C=C(C)C1CCC2(COC(=O)CCC(=O)O)CC[C@@]3(C)C(CCC4[C@@]5(C)CCC(OC(=O)CCC(=O)O)C(C)(C)C5CC[C@]43C)C12 (some centres unmarked) [Betulin-3,28-disuccinate]
Outgoing: +

Incoming: Answer with the recorded Fungal growth for the compound listed here: CC1(C)CCC23CC[C@@]4(C)C(CCC5[C@@]6(C)CCC(OC(=O)CCC(=O)O)C(C)(C)C6CC[C@]54C)C2C1OC3 (some centres unmarked) [Allobetulin-3-succinate]
Outgoing: +
